Where these numbers come from: patent US20180368410A1

Each entry below carries its recorded pest or weed control at 200 ppm.
Test system: Puccinia recondita f. Sp. Tritici
assay_name: Puccinia recondita f. sp. tritici / wheat / leaf disc preventative (brown rust)
Type: in vivo, Puccinia recondita f. sp. tritici on wheat cv. Kanzler
test_context: foliar, 200 ppm in the applied formulation, inoculated 1 day after application, assessed 7 to 9 days after application, vs untreated control leaf disks, read-out: disease control

O=C(CC1CCCC1)NCc1ccc(-c2noc(C(F)(F)F)n2)cc1 [Compound 1.7] yielded pest or weed control at 200 ppm of ≥ 80%

O=C(NCc1ccc(-c2noc(C(F)(F)F)n2)cc1F)C1CCC1 [Compound 1.63] yielded pest or weed control at 200 ppm of ≥ 80%

O=C(NCc1ccc(-c2noc(C(F)(F)F)n2)c(F)c1F)C1CCC1 [Compound 1.75] yielded pest or weed control at 200 ppm of ≥ 80%

COc1ccc(C2(C(=O)NCc3ccc(-c4noc(C(F)(F)F)n4)cc3)CC2)cc1 [Compound 1.38] yielded pest or weed control at 200 ppm of ≥ 80%

O=C(NCc1ccc(-c2noc(C(F)(F)F)n2)cc1)C1CCCC1 [Compound 1.16] yielded pest or weed control at 200 ppm of ≥ 80%

Next:
O=C(NCc1ccc(-c2noc(C(F)(F)F)n2)cc1)C1CCCCC1 [Compound 1.10] yielded pest or weed control at 200 ppm of ≥ 80%

O=C(NCc1ccc(-c2noc(C(F)(F)F)n2)c(F)c1F)C1CC1(F)F (stereo not drawn) [Compound 1.72] yielded pest or weed control at 200 ppm of ≥ 80%

CC1(C(=O)NCc2ccc(-c3noc(C(F)(F)F)n3)cc2)CC1(Cl)Cl (stereo not drawn) [Compound 1.20] yielded pest or weed control at 200 ppm of ≥ 80%

O=C(CC1CC1)NCc1ccc(-c2noc(C(F)(F)F)n2)c(F)c1 [Compound 1.92] yielded pest or weed control at 200 ppm of ≥ 80%

CC1(C(=O)NCc2ccc(-c3noc(C(F)(F)F)n3)cc2F)CC1 [Compound 1.67] yielded pest or weed control at 200 ppm of ≥ 80%

---

Each entry below carries its recorded melting point.

Answered cases to consult:
O=C(NCc1ccc(-c2noc(C(F)(F)F)n2)c(F)c1F)c1ccccc1Cl yielded melting point of 144 to 150 °C

Cc1occc1C(=O)NCc1ccc(-c2noc(C(F)(F)F)n2)cc1 yielded melting point of 102 to 112 °C

O=C(NCCc1ccc(-c2noc(C(F)(F)F)n2)cc1)c1ccccc1Cl yielded melting point of 133 to 140 °C

O=C(NCc1ccc(-c2noc(C(F)(F)F)n2)c(F)c1)C1CCCO1 (centres unmarked) yielded melting point of 56 to 58 °C

O=C(NCCc1ccc(-c2noc(C(F)(F)F)n2)cc1)C1CC1 yielded melting point of 150 to 151.1 °C

Next:
O=C(NCc1ccc(-c2noc(C(F)(F)F)n2)c(F)c1)c1ccccc1Cl yielded melting point of 146 to 148 °C

O=C(NCc1ccc(-c2noc(C(F)(F)F)n2)cc1)C1(F)CC1 yielded melting point of 101 to 108 °C

O=C(NCc1ccc(-c2noc(C(F)(F)F)n2)c(F)c1F)C1CCCO1 (centres unmarked) yielded melting point of 80 to 86 °C

---

Tested on: Puccinia recondita f. Sp. Tritici
assay_name: Puccinia recondita f. sp. tritici / wheat / leaf disc preventative (brown rust)
Format: in vivo, Puccinia recondita f. sp. tritici on wheat cv. Kanzler
test_context: foliar, 200 ppm in the applied formulation, inoculated 1 day after application, assessed 7 to 9 days after application, vs untreated control leaf disks, read-out: disease control
property_measured: pest or weed control at 200 ppm

Answered cases to consult:
O=C(Cc1ccccc1Cl)NCc1ccc(-c2noc(C(F)(F)F)n2)cc1 yielded pest or weed control at 200 ppm of ≥ 80%

O=C(NCc1ccc(-c2noc(C(F)(F)F)n2)c(F)c1)C1CCOC1 (centres unmarked) yielded pest or weed control at 200 ppm of ≥ 80%

CC1(C(=O)NCc2ccc(-c3noc(C(F)(F)F)n3)c(F)c2)COC1 yielded pest or weed control at 200 ppm of ≥ 80%

CC1(C(=O)NCc2ccc(-c3noc(C(F)(F)F)n3)c(F)c2F)CC1 yielded pest or weed control at 200 ppm of ≥ 80%

Now let's try a different one.
O=C(NCc1ccc(-c2noc(C(F)(F)F)n2)cc1Cl)C1CCCO1 (centres unmarked) yielded pest or weed control at 200 ppm of ≥ 80%

---

Each entry below carries its recorded melting point.

Answered cases to consult:
O=C(NCCc1ccc(-c2noc(C(F)(F)F)n2)cc1)C1CCCO1 (stereo not drawn) yielded melting point of 68.7 to 70.5 °C

O=C(NCc1ccc(-c2noc(C(F)(F)F)n2)nc1)c1ccccc1Cl yielded melting point of 106 to 113 °C

O=C(NCc1ccc(-c2noc(C(F)(F)F)n2)cc1)c1ccccc1Cl yielded melting point of 136 to 142 °C

Next:
O=C(NCc1ccc(-c2noc(C(F)(F)F)n2)c(F)c1)C1CC1 yielded melting point of 139 to 140 °C

O=C(NCc1ccc(-c2noc(C(F)(F)F)n2)cc1)C1CCCO1 (stereo not drawn) yielded melting point of 76 to 83 °C

---

property_measured: melting point

O=C(NCc1ccc(-c2noc(C(F)(F)F)n2)c(F)c1F)C1CC1 yielded melting point of 144 to 150 °C

O=C(NCc1ccc(-c2noc(C(F)(F)F)n2)nc1)C1CCCO1 (stereo not shown) yielded melting point of 84 to 88 °C

O=C(NCc1ccc(-c2noc(C(F)(F)F)n2)cc1)C1CC1 yielded melting point of 183 to 190 °C

Now let's try a different one.
CC1=NOC(C(=O)NCc2ccc(-c3noc(C(F)(F)F)n3)c(F)c2)C1 (stereo not shown) yielded melting point of 134 to 138 °C
